- assay_target: human Nav1.5 channels stably expressed in HEK 293 cells (Homo sapiens, UniProt Q14524)
- Construct: expressed in transfected cells; host or cells: HEK 293
- Sequence (Q14524 whole entry): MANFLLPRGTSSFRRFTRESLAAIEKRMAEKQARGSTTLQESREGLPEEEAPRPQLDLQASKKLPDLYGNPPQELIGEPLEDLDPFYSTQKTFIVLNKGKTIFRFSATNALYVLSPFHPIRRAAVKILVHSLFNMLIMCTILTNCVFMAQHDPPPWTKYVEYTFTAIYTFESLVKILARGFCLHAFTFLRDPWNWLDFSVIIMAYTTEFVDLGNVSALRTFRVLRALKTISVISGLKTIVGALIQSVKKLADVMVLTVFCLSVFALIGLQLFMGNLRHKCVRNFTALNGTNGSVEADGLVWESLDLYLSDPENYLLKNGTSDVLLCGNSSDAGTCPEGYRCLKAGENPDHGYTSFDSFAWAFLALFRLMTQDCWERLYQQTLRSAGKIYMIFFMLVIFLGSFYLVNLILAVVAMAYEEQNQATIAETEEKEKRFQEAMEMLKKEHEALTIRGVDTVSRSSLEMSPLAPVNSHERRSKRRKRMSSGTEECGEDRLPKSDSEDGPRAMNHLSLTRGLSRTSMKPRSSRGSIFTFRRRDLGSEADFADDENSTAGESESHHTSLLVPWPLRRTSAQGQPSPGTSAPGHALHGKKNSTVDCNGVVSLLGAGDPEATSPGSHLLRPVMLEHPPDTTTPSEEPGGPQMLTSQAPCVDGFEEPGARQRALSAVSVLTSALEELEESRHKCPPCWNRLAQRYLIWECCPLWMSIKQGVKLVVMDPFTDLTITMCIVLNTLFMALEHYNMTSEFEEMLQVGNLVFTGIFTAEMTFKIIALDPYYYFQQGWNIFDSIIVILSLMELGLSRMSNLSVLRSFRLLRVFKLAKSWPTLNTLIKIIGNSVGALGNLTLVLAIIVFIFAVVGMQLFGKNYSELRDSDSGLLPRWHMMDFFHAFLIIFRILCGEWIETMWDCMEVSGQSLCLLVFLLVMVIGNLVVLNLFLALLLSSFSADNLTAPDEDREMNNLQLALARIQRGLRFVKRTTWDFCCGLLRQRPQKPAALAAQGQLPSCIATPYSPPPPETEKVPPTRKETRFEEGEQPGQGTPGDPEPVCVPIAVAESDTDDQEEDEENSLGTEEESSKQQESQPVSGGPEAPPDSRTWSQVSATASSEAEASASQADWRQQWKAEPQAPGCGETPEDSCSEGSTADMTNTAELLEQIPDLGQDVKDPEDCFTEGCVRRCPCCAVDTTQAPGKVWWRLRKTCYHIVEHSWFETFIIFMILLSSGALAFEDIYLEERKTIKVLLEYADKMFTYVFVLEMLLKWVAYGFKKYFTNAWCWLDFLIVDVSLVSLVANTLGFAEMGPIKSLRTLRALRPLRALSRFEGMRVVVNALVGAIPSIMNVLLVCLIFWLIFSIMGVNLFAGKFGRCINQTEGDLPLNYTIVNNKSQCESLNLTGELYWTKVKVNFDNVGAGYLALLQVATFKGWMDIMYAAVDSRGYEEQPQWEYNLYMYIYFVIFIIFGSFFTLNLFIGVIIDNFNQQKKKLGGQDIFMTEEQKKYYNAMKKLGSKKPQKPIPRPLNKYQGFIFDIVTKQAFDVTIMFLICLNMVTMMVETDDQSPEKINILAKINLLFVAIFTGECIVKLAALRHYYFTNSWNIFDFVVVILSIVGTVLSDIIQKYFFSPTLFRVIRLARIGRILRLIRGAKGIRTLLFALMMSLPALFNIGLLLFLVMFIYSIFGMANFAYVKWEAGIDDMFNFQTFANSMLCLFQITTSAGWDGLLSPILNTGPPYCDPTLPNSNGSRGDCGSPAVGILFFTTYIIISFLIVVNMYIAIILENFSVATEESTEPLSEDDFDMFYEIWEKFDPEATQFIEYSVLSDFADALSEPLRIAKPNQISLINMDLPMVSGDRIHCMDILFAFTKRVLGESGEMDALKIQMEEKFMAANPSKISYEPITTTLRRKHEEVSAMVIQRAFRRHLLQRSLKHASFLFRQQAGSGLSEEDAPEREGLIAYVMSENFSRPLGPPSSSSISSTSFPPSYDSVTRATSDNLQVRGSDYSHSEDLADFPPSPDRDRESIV
- method_description: IonWorks Quattro automated patch-clamp, inactivated state block
- Format: cell-based
- settings: IonWorks technique
Mark Condition met for Ratio 1.5:1.7 = Nav 1.5 potency (nM)/Nav1.7 potency (nM) under 40, Condition not met if at or over.

Record excerpt, results attached:
In [3]: df
Out[3]:
                                        smi        label_class
0  O=S(=O)(Nc1ncns1)c1cc2cnn(Cc3ccccc3I)c2cc1F      Condition met
1  C[C@H](c1ccccc1)n1ncc2cc(S(=O)(=O)Nc3ncns3)c(F)cc21      Condition met
2  NC/C=C/c1cc(Cl)ccc1Cn1ncc2cc(S(=O)(=O)Nc3ncns3)ccc21  Condition not met
3  C[C@H](c1cccc2c1CNCC2)n1ncc2cc(S(=O)(=O)Nc3ncns3)c(F)cc21  Condition not met
4  O=S(=O)(Nc1cccc(F)n1)c1cc2cnn(Cc3cccc4c3CNCC4)c2cc1F  Condition not met
5  O=S(=O)(Nc1ncns1)c1cc2cnn(Cc3ccccc3-c3cccc4c3CCNC4)c2cc1F      Condition met

Now turn to the next molecule.
Query: Does the reported Ratio 1.5:1.7 = Nav 1.5 potency (nM)/Nav1.7 potency (nM) of the following molecule sit strictly below 40? `NC/C=C/c1ccccc1Cn1ncc2cc(S(=O)(=O)Nc3ncns3)c(F)cc21`
Response: Condition not met

---

- assay_target: human Nav1.5 channels stably expressed in HEK 293 cells (Homo sapiens, UniProt Q14524)
- Construct: expressed in transfected cells; host or cells: HEK 293
- method_description: PatchXpress 7000 automated patch-clamp, inactivated state block
- Format: cell-based
- settings: PatchXpress technique
- Procedure: For all electrophysiology experiments, offline analysis was used to correct for current rundown and to determine percent inhibition as a function of drug concentration. IC50 values were determined by fitting to the Hill equation. Sodium Current Measurements on the PatchXpress 7000®: […]
Would you mind telling me the reported Ratio 1.5:1.7 = Nav 1.5 potency (nM)/Nav1.7 potency (nM) of each entry?
One number for each entry.

// batch mode: one Ratio 1.5:1.7 = Nav 1.5 potency (nM)/Nav1.7 potency (nM) value per listed entry
1. NCCCc1ccccc1Cn1ncc2cc(S(=O)(=O)Nc3cccc(F)n3)c(F)cc21
2. C[C@H](c1ccccc1C#CCN)n1ncc2cc(S(=O)(=O)Nc3ncc(Cl)s3)c(F)cc21

Response:
[50, 39]

---

- assay_target: human Nav1.7 channels stably expressed in HEK 293 cells (Homo sapiens, UniProt Q15858)
- Construct: expressed in transfected cells; host or cells: HEK 293
- Sequence (Q15858 whole entry): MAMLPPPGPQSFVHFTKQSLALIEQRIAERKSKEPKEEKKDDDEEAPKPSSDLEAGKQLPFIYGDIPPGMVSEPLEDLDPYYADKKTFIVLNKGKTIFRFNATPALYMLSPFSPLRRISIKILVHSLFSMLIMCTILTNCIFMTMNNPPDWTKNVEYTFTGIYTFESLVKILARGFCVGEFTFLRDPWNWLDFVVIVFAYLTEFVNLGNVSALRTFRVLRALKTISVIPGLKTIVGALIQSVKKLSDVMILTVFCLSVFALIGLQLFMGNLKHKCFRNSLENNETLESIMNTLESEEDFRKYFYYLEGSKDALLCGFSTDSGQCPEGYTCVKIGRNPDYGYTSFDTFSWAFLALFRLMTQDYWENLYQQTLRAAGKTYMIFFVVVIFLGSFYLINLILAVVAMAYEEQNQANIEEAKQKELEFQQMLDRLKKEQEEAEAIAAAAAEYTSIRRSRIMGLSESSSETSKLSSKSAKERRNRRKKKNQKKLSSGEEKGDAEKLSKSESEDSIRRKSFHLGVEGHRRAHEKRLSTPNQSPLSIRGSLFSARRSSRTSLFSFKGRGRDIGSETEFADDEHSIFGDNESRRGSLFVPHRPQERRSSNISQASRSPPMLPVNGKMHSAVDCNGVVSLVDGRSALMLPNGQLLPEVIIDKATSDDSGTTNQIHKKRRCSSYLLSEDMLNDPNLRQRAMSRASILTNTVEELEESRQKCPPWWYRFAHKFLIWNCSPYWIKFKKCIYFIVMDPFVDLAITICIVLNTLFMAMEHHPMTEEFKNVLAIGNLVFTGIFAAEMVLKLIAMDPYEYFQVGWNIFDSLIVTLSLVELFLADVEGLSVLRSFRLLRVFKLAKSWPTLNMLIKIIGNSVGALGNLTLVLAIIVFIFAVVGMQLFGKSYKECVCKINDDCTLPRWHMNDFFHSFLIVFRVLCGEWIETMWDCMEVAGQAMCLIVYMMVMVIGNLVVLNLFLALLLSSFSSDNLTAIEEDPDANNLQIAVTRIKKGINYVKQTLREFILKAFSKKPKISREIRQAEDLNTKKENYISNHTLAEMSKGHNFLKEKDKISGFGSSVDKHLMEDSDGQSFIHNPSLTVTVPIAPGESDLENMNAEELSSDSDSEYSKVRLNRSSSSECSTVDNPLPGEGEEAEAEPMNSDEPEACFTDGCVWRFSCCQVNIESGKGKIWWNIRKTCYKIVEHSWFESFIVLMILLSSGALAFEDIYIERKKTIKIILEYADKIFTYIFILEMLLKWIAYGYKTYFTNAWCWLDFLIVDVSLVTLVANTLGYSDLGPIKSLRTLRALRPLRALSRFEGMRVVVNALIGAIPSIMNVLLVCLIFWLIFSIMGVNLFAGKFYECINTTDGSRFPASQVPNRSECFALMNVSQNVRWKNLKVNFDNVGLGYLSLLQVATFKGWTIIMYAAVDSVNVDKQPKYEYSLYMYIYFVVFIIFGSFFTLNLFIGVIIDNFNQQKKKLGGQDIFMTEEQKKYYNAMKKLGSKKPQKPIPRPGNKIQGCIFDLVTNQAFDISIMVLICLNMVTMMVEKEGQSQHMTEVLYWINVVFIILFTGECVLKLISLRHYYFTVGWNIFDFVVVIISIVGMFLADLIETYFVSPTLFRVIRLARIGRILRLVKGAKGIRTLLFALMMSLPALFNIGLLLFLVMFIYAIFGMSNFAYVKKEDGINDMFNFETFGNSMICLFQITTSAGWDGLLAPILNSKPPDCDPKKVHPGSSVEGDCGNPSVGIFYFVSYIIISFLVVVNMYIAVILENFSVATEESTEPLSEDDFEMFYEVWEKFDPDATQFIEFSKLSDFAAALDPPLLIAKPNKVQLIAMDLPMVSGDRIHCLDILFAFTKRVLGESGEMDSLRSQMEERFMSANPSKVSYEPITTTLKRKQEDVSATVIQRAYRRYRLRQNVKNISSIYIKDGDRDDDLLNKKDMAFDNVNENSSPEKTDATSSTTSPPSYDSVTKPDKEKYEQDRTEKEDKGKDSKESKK
- method_description: IonWorks Quattro automated patch-clamp, inactivated state block
- Assay type: cell-based
- settings: IonWorks technique; read-out: Nav 1.7 potency
measured_parameter: IC50

Examples from the recorded data:
>>> df
                                        smi                              assay_target  reading
0  NC/C=C/c1ccccc1Cn1ncc2cc(S(=O)(=O)Nc3ncns3)c(F)cc21  human Nav1.7 channels stably expressed in HEK 293 cells (Homo sapiens, UniProt Q15858)    34 nM
1  C[C@@H](c1cccc2c1CNCC2)n1ncc2cc(S(=O)(=O)Nc3ncns3)c(F)cc21  human Nav1.7 channels stably expressed in HEK 293 cells (Homo sapiens, UniProt Q15858)   777 nM
2  NC/C=C/c1ccccc1Cn1ncc2cc(S(=O)(=O)Nc3ncns3)cc(Cl)c21  human Nav1.7 channels stably expressed in HEK 293 cells (Homo sapiens, UniProt Q15858)  1720 nM

Alright, here's another molecule for you.
Query: Could you share which IC50 value was measured for `O=S(=O)(Nc1ncns1)c1cc2cnn(Cc3cccc4c3CNCC4)c2cc1F` ?
Response: 106 nM
